Assayed System: T1, NHERF3_3, Q5T2W1
T1 sequence (Q5T2W1 238-333, limits assumed, looked up): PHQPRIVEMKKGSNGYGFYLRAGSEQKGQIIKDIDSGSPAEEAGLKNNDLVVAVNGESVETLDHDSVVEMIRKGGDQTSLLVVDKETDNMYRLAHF
Protocol Notes: holdup assay
Design: key: below the threshold = too weak to quantify, mostly under pKd 3.1 to 4
Settings: plain residues with an end cap or a label only (N-terminal biotin on a linker: ado-ado)
Quantity: pKd

Some binders with known pKd results, for comparison:
QRPYRRGSEI [KCNJ18, B7U540]	below the threshold
SLNANEVEWF [RNF130, Q86XS8]	below the threshold
ELSATVTTDC [TRIP6, Q15654]	3.87
LAHVKHKEQI [AQP3, Q92482]	below the threshold

Query :: Look at this binder and give its reported pKd. VKRNSKETVV [MARCHF3, Q86UD3]
Result :: below the threshold

Query :: Look at this binder and give its reported pKd. PSVGSKKTVL [REELD1, A0A1B0GV85]
Result :: below the threshold

Query :: Look at this binder and give its reported pKd. KSRVAFFEEL [NF2, P35240;P35240-1]
Result :: below the threshold

Query :: Look at this binder and give its reported pKd. PTPDLPQTRV [KLHDC7A, Q5VTJ3]
Result :: below the threshold

Query :: Look at this binder and give its reported pKd. DRIQSCLSDA [SBF1, O95248]
Result :: below the threshold

Query :: Look at this binder and give its reported pKd. LPAVCYDIDI [PTTG2, Q9NZH5]
Result :: below the threshold

Query :: Look at this binder and give its reported pKd. KPGKGSETVV [FZD4, Q9ULV1]
Result :: below the threshold

Query :: Look at this binder and give its reported pKd. GEDRSPPTAL [MKNK1, Q9BUB5]
Result :: below the threshold

Query :: Look at this binder and give its reported pKd. NVYGIESVKI [GRIA2, P42262]
Result :: below the threshold

Query :: Look at this binder and give its reported pKd. PSHPRLQTHV [KIRREL2, Q6UWL6]
Result :: below the threshold

Query :: Look at this binder and give its reported pKd. AQRARSPSDV [GPR12, P47775]
Result :: below the threshold

Query :: Look at this binder and give its reported pKd. ARESQKVSHV [FAM110B, Q8TC76]
Result :: below the threshold

The values you see were collected from paper PMC9482650.
